Please provide measured IC50 for the entries that follow.
# Measurement target: B-Raf delta1-415 (Homo sapiens)
# Test protocol: B-Raf kinase inhibition (MAPH filter plate, 33P-ATP, MEK1 substrate)
# Experimental setup: read-out: Biochemical IC50 B-Raf

Which IC50 value belongs to COn1c(=O)c(-c2c(Cl)cccc2Cl)cc2cnc(Nc3ccc(N4CCN(C(C)C)CC4)cc3)nc21 ? < 500 nM

Also need COn1c(=O)c(-c2c(Cl)cccc2Cl)cc2cnc(Nc3cc(C(=O)NCCCN4CCCC4)n(C)c3)nc21 , thanks. < 500 nM

Also need CNS(=O)(=O)Cc1ccc(Nc2ncc3cc(-c4c(Cl)cccc4Cl)c(=O)n(OC)c3n2)cc1 , thanks. < 100 nM

Also need CN1CC[C@H](COn2c(=O)c(-c3c(F)cccc3Cl)cc3cnc(Nc4ccc(N5CCOCC5)cc4)nc32)C1 , thanks. < 100 nM

Also need COn1c(=O)c(-c2c(F)cccc2Cl)cc2cnc(Nc3cc(C(=O)N4CCNCC4)n(C)c3)nc21 , thanks. < 100 nM

Also need COn1c(=O)c(-c2c(F)cccc2Cl)cc2cnc(Nc3ccc(N4CCOCC4)cc3)nc21 , thanks. < 100 nM

Also need COn1c(=O)c(-c2c(Cl)cccc2Cl)cc2cnc(Nc3cccc(Cn4cncn4)c3)nc21 , thanks. < 100 nM

* * *

# Measurement target: B-Raf delta1-415 (Homo sapiens, UniProt P15056)
# Sequence (P15056 416-766): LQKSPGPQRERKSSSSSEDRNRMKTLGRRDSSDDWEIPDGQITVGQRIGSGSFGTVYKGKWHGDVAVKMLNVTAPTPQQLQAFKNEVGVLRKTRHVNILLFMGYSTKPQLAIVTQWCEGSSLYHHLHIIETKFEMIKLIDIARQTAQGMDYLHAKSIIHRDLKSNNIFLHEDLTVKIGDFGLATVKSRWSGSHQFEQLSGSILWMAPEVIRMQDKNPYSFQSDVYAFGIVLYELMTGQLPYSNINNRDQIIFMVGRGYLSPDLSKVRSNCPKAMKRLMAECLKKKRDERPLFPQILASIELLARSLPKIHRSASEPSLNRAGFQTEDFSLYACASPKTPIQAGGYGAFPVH
# Test protocol: B-Raf kinase inhibition (MAPH filter plate, 33P-ATP, MEK1 substrate)
# Experimental setup: read-out: Biochemical IC50 B-Raf
Please provide measured IC50 for the entries that follow.

Which IC50 value belongs to C/C=C/C(=O)Nc1ncc2cc(-c3c(C)cccc3C)c(=O)n(OC)c2n1 ? > 1000 nM

Also need COn1c(=O)c(-c2c(C)cccc2C)cc2cnc(Nc3cc(C(=O)NCCN4CCCC4)n(C)c3)nc21 , thanks. < 500 nM

Also need COn1c(=O)c(-c2c(Cl)cccc2Cl)cc2cnc(Nc3cc(C(=O)N4CCOCC4)n(C)c3)nc21 , thanks. < 100 nM

Also need COCCN(C)C(=O)c1cc(Nc2ncc3cc(-c4c(Cl)cccc4Cl)c(=O)n(OCC4CC4)c3n2)cn1C , thanks. < 500 nM

Also need CC(C)(C)On1c(=O)c(Br)cc2cnc(Nc3ccccc3)nc21 , thanks. > 10000 nM

Also need COCCOn1c(=O)c(-c2c(F)cccc2Cl)cc2cnc(Nc3ccc(N4CCNCC4)cc3)nc21 , thanks. < 500 nM

Also need COn1c(=O)c(-c2c(C)cccc2C)cc2cnc(Nc3ccc(N4CCN(C)CC4)cc3)nc21 , thanks. < 100 nM

Also need COn1c(=O)c(-c2c(Cl)cccc2Cl)cc2cnc(Nc3ccc(OCCO)cc3)nc21 , thanks. < 100 nM

Also need COn1c(=O)c(-c2c(Cl)cccc2Cl)cc2cnc(NCCO)nc21 , thanks. < 500 nM

Also need COn1c(=O)c(-c2c(Cl)cccc2Cl)cc2cnc(Nc3ccc(CN4CC(O)C4)cc3)nc21 , thanks. < 500 nM

Also need Nc1ncc2cc(-c3c(Cl)cccc3Cl)c(=O)n(OCc3cccnc3)c2n1 , thanks. < 1000 nM

Also need COn1c(=O)c(-c2c(Cl)cccc2Cl)cc2cnc(Nc3cc(C(=O)NCCOC(=O)[C@@H](N)C(C)C)n(C)c3)nc21 , thanks. < 500 nM

Also need NCCCCCOn1c(=O)c(-c2c(Cl)cccc2Cl)cc2cnc(Nc3ccccc3)nc21 , thanks. < 500 nM

Also need COc1ccc(OC)c(-c2cc3cnc(Nc4ccccc4)nc3n(OC)c2=O)c1 , thanks. < 10000 nM

Also need COn1c(=O)c(-c2c(Cl)cccc2Cl)cc2cnc(Nc3ccc(CO)cc3)nc21 , thanks. < 100 nM

Also need COn1c(=O)c(-c2c(C)cccc2C)cc2cnc(Nc3cccnc3)nc21 , thanks. < 100 nM

Also need COn1c(=O)c(-c2c(Cl)cccc2Cl)cc2cnc(Nc3cccc(CN4CC[C@H](O)C4)c3)nc21 , thanks. < 500 nM

Also need CCN(CC)CCNC(=O)c1cc(Nc2ncc3cc(-c4c(Cl)cccc4Cl)c(=O)n(OC)c3n2)cn1C , thanks. < 500 nM

Also need NCCCCOn1c(=O)c(-c2c(Cl)cccc2Cl)cc2cnc(Nc3cccc(S(N)(=O)=O)c3)nc21 , thanks. < 100 nM

Also need Cn1cc(Nc2ncc3cc(-c4c(Cl)cccc4Cl)c(=O)n(OC[C@H](O)CO)c3n2)cc1C(=O)NCCN1CCCC1 , thanks. < 500 nM

Also need COn1c(=O)c(-c2c(Cl)cccc2Cl)cc2cnc(NC(=O)C3CC3)nc21 , thanks. > 1000 nM

Also need COC(=O)c1ccc(Nc2ncc3cc(-c4c(Cl)cccc4Cl)c(=O)n(OC)c3n2)cc1 , thanks. > 1000 nM

Also need COn1c(=O)c(-c2c(Cl)cccc2Cl)cc2cnc(Nc3ccccc3F)nc21 , thanks. > 1000 nM

Also need COc1cccc(Nc2ncc3cc(-c4c(F)cccc4Cl)c(=O)n(OC[C@@H](O)CO)c3n2)c1 , thanks. < 100 nM

Also need CCCN1CCN(c2ccc(Nc3ncc4cc(-c5c(Cl)cccc5Cl)c(=O)n(OCCOC)c4n3)cc2)CC1 , thanks. < 500 nM

Also need COn1c(=O)c(-c2c(Cl)cccc2Cl)cc2cnc(Nc3ccc(S(=O)(=O)CCCO)cc3)nc21 , thanks. < 100 nM

Also need CCCN1CCN(c2ccc(Nc3ncc4cc(-c5c(F)cccc5Cl)c(=O)n(OC)c4n3)cc2)CC1 , thanks. < 500 nM

Also need COn1c(=O)c(-c2cc(NC(C)=O)ccc2Cl)cc2cnc(Nc3ccccc3)nc21 , thanks. < 500 nM

Also need COn1c(=O)c(-c2c(Cl)cccc2Cl)cc2cnc(Nc3ccc(CNS(C)(=O)=O)cc3)nc21 , thanks. < 100 nM

Also need COn1c(=O)c(-c2c(Cl)cccc2Cl)cc2cnc(Nc3ccc(N4CCN(C)CC4)cc3)nc21 , thanks. < 100 nM

Also need CC(C)(C)On1c(=O)c(-c2ccccc2Cl)cc2cnc(Nc3ccccc3)nc21 , thanks. < 10000 nM

* * *

# Measurement target: C-Raf Raf-1 (truncated), active (Homo sapiens, UniProt P04049, Y340D/Y341D)
# Sequence (P04049 306-648 Y340D/Y341D): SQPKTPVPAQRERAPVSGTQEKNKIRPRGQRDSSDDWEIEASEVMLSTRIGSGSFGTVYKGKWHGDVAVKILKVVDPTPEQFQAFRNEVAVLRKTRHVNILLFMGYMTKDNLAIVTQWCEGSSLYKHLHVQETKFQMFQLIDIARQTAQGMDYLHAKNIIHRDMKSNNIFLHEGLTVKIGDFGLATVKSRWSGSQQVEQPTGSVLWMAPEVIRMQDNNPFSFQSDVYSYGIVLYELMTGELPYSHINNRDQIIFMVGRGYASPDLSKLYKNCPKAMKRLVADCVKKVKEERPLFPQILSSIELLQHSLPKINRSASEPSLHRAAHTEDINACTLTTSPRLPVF
# Test protocol: C-Raf kinase inhibition (MAPH assay / IMAP assay)
# Experimental setup: read-out: Biochemical IC50 C-Raf
Outcome measure: IC50

Which IC50 value belongs to NCCCCCOn1c(=O)c(-c2c(Cl)cccc2Cl)cc2cnc(Nc3ccccc3)nc21 ? < 100 nM

Also need COn1c(=O)c(-c2c(Cl)cccc2Cl)cc2cnc(Nc3ccc(CCO)cc3)nc21 , thanks. < 100 nM

Also need COc1cccc(Nc2ncc3cc(-c4c(Cl)cccc4Cl)c(=O)n(OCCN(C)C)c3n2)c1 , thanks. < 500 nM

Also need COn1c(=O)c(-c2c(Cl)cccc2Cl)cc2cnc(Nc3ccc(S(C)(=O)=O)cc3)nc21 , thanks. < 100 nM

* * *

# Measurement target: B-Raf delta1-415 (Homo sapiens)
# Test protocol: B-Raf kinase inhibition (MAPH filter plate, 33P-ATP, MEK1 substrate)
# Experimental setup: read-out: Biochemical IC50 B-Raf
pIC50: −log10 of the molar value.
Outcome measure: pIC50

Query for B-Raf delta1-415 (Homo sapiens): what pIC50 does the record show for COn1c(=O)c(-c2c(F)cccc2Cl)cc2cnc(Nc3cc(C(=O)N(C)CCO)n(C)c3)nc21 ? > 7.00

Also need COn1c(=O)c(-c2c(C)cccc2C)cc2cnc(Nc3cc(C(=O)NCCO)n(C)c3)nc21 , thanks. > 6.30

Also need COc1cccc(Nc2ncc3cc(-c4c(C)cccc4C)c(=O)n(OC)c3n2)c1 , thanks. > 6.30

Also need COn1c(=O)c(-c2c(Cl)cccc2Cl)cc2cnc(Nc3ccc(N4CCNCC4)cc3)nc21 , thanks. > 7.00

Also need COn1c(=O)c(-c2c(Cl)cccc2Cl)cc2cnc(Nc3csc(C(=O)N4CCN(C)CC4)c3)nc21 , thanks. > 7.00

Also need CCN(CC)Cc1ccc(Nc2ncc3cc(-c4c(Cl)cccc4Cl)c(=O)n(OC)c3n2)cc1 , thanks. > 6.30

Also need CNC(=O)c1cccc(Nc2ncc3cc(-c4c(Cl)cccc4Cl)c(=O)n(OC)c3n2)c1 , thanks. > 7.00

Also need COn1c(=O)c(-c2c(Cl)cccc2Cl)cc2cnc(Nc3nc(C(=O)N(C)CCO)cs3)nc21 , thanks. > 6.00

* * *

Please provide measured pIC50 for the entries that follow.
# Measurement target: B-Raf delta1-415 (Homo sapiens, UniProt P15056)
# Test protocol: B-Raf kinase inhibition (MAPH filter plate, 33P-ATP, MEK1 substrate)
# Experimental setup: read-out: Biochemical IC50 B-Raf
pIC50: −log10 of the molar value.

Query for B-Raf delta1-415 (Homo sapiens, UniProt P15056): what pIC50 does the record show for COn1c(=O)c(-c2c(Cl)cccc2Cl)cc2cnc(Nc3ccc(CN4CCN(C(C)C)CC4)cc3)nc21 ? > 6.30

Also need COn1c(=O)c(-c2c(Cl)cccc2Cl)cc2cnc(Nc3cccc(S(=O)(=O)NCCO)c3)nc21 , thanks. > 7.00

Also need COCCOn1c(=O)c(-c2c(F)cccc2Cl)cc2cnc(Nc3ccc(N4CCOCC4)cc3)nc21 , thanks. > 7.00

Also need COn1c(=O)c(-c2c(Cl)cccc2Cl)cc2cnc(Nc3cccc(CO)c3)nc21 , thanks. > 7.00

Also need COc1cccc(Nc2ncc3cc(-c4c(Cl)cccc4Cl)c(=O)n(OCCN(C)C)c3n2)c1 , thanks. > 7.00

Also need COc1cccc(Cl)c1-c1cc2cnc(Nc3ccc(N4CCN(C)CC4)cc3)nc2n(OC)c1=O , thanks. > 6.30

Also need COn1c(=O)c(-c2c(Cl)cccc2Cl)cc2cnc(Nc3cc(C(=O)N4CCNCC4)n(C)c3)nc21 , thanks. > 7.00

Also need COc1cccc(Nc2ncc3cc(-c4c(Cl)cccc4Cl)c(=O)n(OCCO)c3n2)c1 , thanks. > 7.00
